Kindly supply the reported log10(EC50) values for the records listed here.
Measurement target: ERR1 (also known as ERR-α or ERR-1) (Homo sapiens)
Assay details: TR-FRET assay: disruption of co-activator peptide (GST-hSRC2) binding to 6His-tagged ERR1 LBD
Condition description: 6 nM ERR1LBD, 6 nM GST-SRC-2 peptide, 25° C., 4-18 hours; average of 3 independent experiments
Transform log10 | Measure EC50 | Unit nM

Would you please look over these solved cases?
[
  {
    "Molecule": "O=C1N=C(NCc2nn[nH]n2)S/C1=C\\c1ccc2c(cnn2Cc2ccc(C(F)(F)F)cc2C(F)(F)F)c1",
    "Measurement target": "ERR1 (also known as ERR-α or ERR-1) (Homo sapiens)",
    "log10(EC50)": 0.59
  },
  {
    "Molecule": "O=C1N=C(NCCn2cncn2)S/C1=C\\c1ccc2c(cnn2Cc2ccc(C(F)(F)F)cc2C(F)(F)F)c1",
    "Measurement target": "ERR1 (also known as ERR-α or ERR-1) (Homo sapiens)",
    "log10(EC50)": 0.88
  }
]

Working through the 7 molecules below one at a time, give log10(EC50) for each.
1. Cc1nnc(CNC2=NC(=O)/C(=C/c3ccc4c(cnn4Cc4ccc(Cl)cc4C(F)(F)F)c3)S2)[nH]1
2. O=C(O)CC(O)CNC1=NC(=O)/C(=C/c2ccc3c(cnn3Cc3ccc(Cl)cc3C(F)(F)F)c2)S1 (stereo not drawn)
3. CNC(=O)CNC1=NC(=O)/C(=C/c2ccc3c(cnn3Cc3ccc(Cl)cc3C(F)(F)F)c2)S1
4. CN1CCC(NC2=NC(=O)/C(=C/c3ccc4c(cnn4Cc4ccc(Cl)cc4C(F)(F)F)c3)S2)CC1
5. O=C1N=C(N[C@H]2CN3CCC2CC3)S/C1=C\c1ccc2c(cnn2Cc2ccc(Cl)cc2C(F)(F)F)c1
6. O=C1N=C(NCCOCCO)S/C1=C\c1ccc2c(cnn2Cc2ccc(Cl)cc2Cl)c1
7. COc1ccc(Cn2ncc3cc(/C=C4\SC(NCCN5CCCC5)=NC4=O)ccc32)c(C(F)(F)F)c1

Output:
[1.05, 1.34, 0.89, 1.62, 0.78, 1.86, 0.65]

---

Measurement target: ERR1 (also known as ERR-α or ERR-1) (Homo sapiens)
Assay details: TR-FRET assay: disruption of co-activator peptide (GST-hSRC2) binding to 6His-tagged ERR1 LBD
Type: biochemical
Condition description: 6 nM ERR1LBD, 6 nM GST-SRC-2 peptide, 25° C., 4-18 hours; average of 3 independent experiments
Kindly supply the reported pEC50 values for the records listed here.
Give bare numbers, as −log10 of the molar value.

Would you please look over these solved cases?
[
  {
    "Smiles record": "CN(C)CCCNC1=NC(=O)/C(=C/c2ccc3c(cnn3Cc3ccc(F)cc3C(F)(F)F)c2)S1",
    "pEC50": 7.11
  },
  {
    "Smiles record": "O=C1N=C(N[C@@H]2CN3CCC2CC3)S/C1=C\\c1ccc2c(cnn2Cc2ccc(Cl)cc2C(F)(F)F)c1",
    "pEC50": 7.96
  },
  {
    "Smiles record": "COc1ccc(Cn2ncc3cc(/C=C4\\SC(NC5(C(=O)O)CC5)=NC4=O)ccc32)c(C(F)(F)F)c1",
    "pEC50": 8.28
  }
]

Could you now look at the following compound, please?
Task: Bench note: what pEC50 did O=C1N=C(NCCN2CCOCC2)S/C1=C\c1ccc2c(cnn2Cc2ccc(C(F)(F)F)cc2C(F)(F)F)c1 show?
Output: 7.82

---

Measurement target: ERR1 (also known as ERR-α or ERR-1) (Homo sapiens, UniProt P11474)
Sequence (P11474 193-421 limits assumed, species assumed): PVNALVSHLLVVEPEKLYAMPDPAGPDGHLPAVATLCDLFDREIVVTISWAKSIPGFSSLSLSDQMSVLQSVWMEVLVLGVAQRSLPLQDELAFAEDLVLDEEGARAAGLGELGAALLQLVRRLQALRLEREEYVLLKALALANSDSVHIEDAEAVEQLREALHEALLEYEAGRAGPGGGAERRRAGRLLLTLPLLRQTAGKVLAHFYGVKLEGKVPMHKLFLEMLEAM
Assay details: TR-FRET assay: disruption of co-activator peptide (GST-hSRC2) binding to 6His-tagged ERR1 LBD
Condition description: 6 nM ERR1LBD, 6 nM GST-SRC-2 peptide, 25° C., 4-18 hours; average of 3 independent experiments
Protocol: Time-Resolved Fluorescence Resonance Energy Transfer (TR-FRET) experiments were performed to examine the functional response of ERR1 (also known as ERR-α or ERR-1) ligands. The TR-FRET assay described herein relied on the conformation of ERR1 for binding to a co-activator peptide: when a test compound binds to ERR1 and alters its conformation, it can disrupt the binding of the co-activator peptide. […]
Kindly supply the reported pEC50 values for the records listed here.
Numbers only, as −log10 of the molar value.

[
  {
    "Compound": "O=C1N=C(N[C@H]2CN3CCC2CC3)S/C1=C\\c1ccc2c(cnn2Cc2ccc(C(F)(F)F)cc2C(F)(F)F)c1 [Compound 26]",
    "Measurement target": "ERR1 (also known as ERR-α or ERR-1) (Homo sapiens, UniProt P11474)",
    "Value": 7.44
  },
  {
    "Compound": "O=C1N=C(NCCN2CCCC2=O)S/C1=C\\c1ccc2c(cnn2Cc2ccc(C(F)(F)F)cc2C(F)(F)F)c1 [Compound 34]",
    "Measurement target": "ERR1 (also known as ERR-α or ERR-1) (Homo sapiens, UniProt P11474)",
    "Value": 7.51
  },
  {
    "Compound": "COc1ccc(Cn2ncc3cc(/C=C4\\SC(NCC(F)F)=NC4=O)ccc32)c(C(F)(F)F)c1 [Compound 11]",
    "Measurement target": "ERR1 (also known as ERR-α or ERR-1) (Homo sapiens, UniProt P11474)",
    "Value": 8.52
  },
  {
    "Compound": "O=C1N=C(N[C@@H]2CN3CCC2CC3)S/C1=C\\c1ccc2c(cnn2Cc2ccc(C(F)(F)F)cc2C(F)(F)F)c1 [Compound 29]",
    "Measurement target": "ERR1 (also known as ERR-α or ERR-1) (Homo sapiens, UniProt P11474)",
    "Value": 7.41
  },
  {
    "Compound": "O=C1N=C(NC2(C(=O)O)CC2)S/C1=C\\c1ccc2c(cnn2Cc2ccc(C(F)(F)F)cc2C(F)(F)F)c1 [Compound 14]",
    "Measurement target": "ERR1 (also known as ERR-α or ERR-1) (Homo sapiens, UniProt P11474)",
    "Value": 8.19
  }
]

Could you now look at the following compound, please?
Task: Bench note: what pEC50 did COc1ccc(Cn2ncc3cc(/C=C4\SC(NCCCN5CCCC5=O)=NC4=O)ccc32)c(C(F)(F)F)c1 [Compound 7] show?
Output: 8.36
